Provide the recorded activation at 10 µM for the entries that follow.
System Tested: CaSR de rat (Rattus norvegicus, UniProt P48442)
Construct: expressed in transfected cells; host or cells: CHO (Chinese hamster ovary) cells, line CHO(CaSR)
Sequence (P48442 20-1079): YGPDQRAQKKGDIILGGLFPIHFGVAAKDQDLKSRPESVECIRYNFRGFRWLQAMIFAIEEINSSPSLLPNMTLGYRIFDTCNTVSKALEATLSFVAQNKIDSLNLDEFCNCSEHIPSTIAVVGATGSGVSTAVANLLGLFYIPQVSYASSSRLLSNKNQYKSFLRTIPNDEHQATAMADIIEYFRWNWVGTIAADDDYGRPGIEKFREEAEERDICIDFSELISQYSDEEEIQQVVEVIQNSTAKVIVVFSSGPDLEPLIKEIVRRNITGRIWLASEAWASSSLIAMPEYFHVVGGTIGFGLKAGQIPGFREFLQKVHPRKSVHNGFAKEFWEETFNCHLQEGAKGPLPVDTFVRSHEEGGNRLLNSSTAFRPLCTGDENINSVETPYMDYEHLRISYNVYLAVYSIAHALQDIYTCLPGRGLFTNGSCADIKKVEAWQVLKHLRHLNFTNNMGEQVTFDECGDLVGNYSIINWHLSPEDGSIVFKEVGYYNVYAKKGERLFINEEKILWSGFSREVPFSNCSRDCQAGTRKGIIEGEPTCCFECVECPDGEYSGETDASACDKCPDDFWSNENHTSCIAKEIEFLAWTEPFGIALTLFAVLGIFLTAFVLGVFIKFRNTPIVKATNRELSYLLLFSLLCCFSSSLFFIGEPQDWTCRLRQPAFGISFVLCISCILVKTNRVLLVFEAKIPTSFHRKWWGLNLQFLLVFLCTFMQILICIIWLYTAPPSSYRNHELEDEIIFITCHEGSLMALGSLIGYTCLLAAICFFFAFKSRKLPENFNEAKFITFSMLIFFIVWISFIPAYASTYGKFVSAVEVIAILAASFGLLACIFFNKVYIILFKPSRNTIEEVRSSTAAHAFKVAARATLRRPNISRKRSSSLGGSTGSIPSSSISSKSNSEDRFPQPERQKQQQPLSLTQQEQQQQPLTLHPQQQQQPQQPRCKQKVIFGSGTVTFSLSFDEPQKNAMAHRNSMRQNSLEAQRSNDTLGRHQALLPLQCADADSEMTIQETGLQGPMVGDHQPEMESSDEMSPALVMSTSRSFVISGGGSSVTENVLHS
Experiment: Accumulation of tritiated inositol phosphates ([3H]IP) in transfected CHO(CaSR) cells
Format: cell-based
Condition Info: compound 10 µM, in presence of 2 mM Ca^2+, mean ± standard error of 2 to 5 independent experiments, read-out: Accumulation d'(^3H)-IP % de la réponse 10mM Ca^2+ ± E.S.

Per the record, CC(NCC(Cc1ccccc1)NS(=O)(=O)c1cccc2ccccc12)c1cccc2ccccc12 (stereo not shown) has activation at 10 µM of 31%

Per the record, COc1ccc(S(=O)(=O)NC(CNC(C)c2cccc3ccccc23)Cc2ccccc2)cc1OC (stereo not shown) has activation at 10 µM of 97%

Per the record, CC(NCC(Cc1ccccc1)NCc1ccc(F)cc1)c1cccc2ccccc12 (stereo not shown) has activation at 10 µM of 95%

Per the record, COc1ccc(S(=O)(=O)NC(CNC(C)c2cccc3ccccc23)Cc2ccccc2Cl)cc1 (stereo not shown) has activation at 10 µM of 60%

All values here come from patent EP1235797B1.
